# TARGET_ENTITY: GST-MSI2 (full-length human MSI2) (Homo sapiens, UniProt Q96DH6, F66A)
# Construct: full-length, N-terminal GST-Flag tag kept (pGEX6P3), expressed in E. coli BL21(DE3)
# Sequence (Q96DH6 whole entry F66A): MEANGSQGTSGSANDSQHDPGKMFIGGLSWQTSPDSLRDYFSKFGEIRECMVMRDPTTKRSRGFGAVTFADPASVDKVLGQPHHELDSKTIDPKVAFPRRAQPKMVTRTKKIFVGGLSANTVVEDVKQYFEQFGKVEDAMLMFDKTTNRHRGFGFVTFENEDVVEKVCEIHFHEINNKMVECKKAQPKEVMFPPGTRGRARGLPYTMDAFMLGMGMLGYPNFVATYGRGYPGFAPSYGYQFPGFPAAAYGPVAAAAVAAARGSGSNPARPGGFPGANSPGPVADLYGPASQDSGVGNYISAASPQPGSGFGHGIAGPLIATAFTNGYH
# PROTOCOL_DESCRIPTION: microscale thermophoresis
# Format: binding
OBSERVED_PROPERTY: Kd

Please look up its Kd: Cc1cc2nc3c(=O)[nH]c(=O)nc-3n(C)c2cc1C=O
> 200 µM

* * *

# TARGET_ENTITY: GST-MSI2 (full-length human MSI2) (Homo sapiens, UniProt Q96DH6)
# Construct: full-length, N-terminal GST-Flag tag kept (pGEX6P3), expressed in E. coli BL21(DE3)
# Sequence (Q96DH6 whole entry): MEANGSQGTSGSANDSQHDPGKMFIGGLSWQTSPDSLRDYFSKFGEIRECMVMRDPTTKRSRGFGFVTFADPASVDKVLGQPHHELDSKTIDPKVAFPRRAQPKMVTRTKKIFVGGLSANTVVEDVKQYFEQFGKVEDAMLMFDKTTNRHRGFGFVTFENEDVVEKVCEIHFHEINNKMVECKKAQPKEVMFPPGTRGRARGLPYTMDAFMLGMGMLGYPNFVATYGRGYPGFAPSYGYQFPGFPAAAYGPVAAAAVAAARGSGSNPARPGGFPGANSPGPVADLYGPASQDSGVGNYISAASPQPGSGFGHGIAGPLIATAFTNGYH
# PROTOCOL_DESCRIPTION: microscale thermophoresis
# Format: binding
Exercise: for every item that follows, state its recorded Kd.

COMPOUND_SMILES: Cc1cc2nc3c(=O)[nH]c(=O)nc-3n(C)c2cc1CO
Kd: 302 µM

Okay, now this molecule:
Please look up its Kd: Cc1cc2nc3c(=O)[nH]c(=O)nc-3n(C)c2cc1C=O
12.3 µM
